B1: 1-phosphatidylinositol 4,5-bisphosphate phosphodiesterase gamma-2, residues 772 to 827; numbered along this chain, P16885 (parent)
chain: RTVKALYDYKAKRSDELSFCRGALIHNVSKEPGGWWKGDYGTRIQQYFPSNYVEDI

- Variants of: B1
- EXPERIMENT_NOTES: abundance fitness (aPCA) (normalised: wild type 0, dead -1); higher = more abundant; growth selection in yeast, the domain comes from the species named
- CONDITIONS_USED: Homo sapiens
Each entry gets label 0 if its abundance fitness stays under -0.2, and label 1 if its abundance fitness is -0.2 or above.

Given K12I , state whether its abundance fitness is at least -0.2.
label 0

// inclusive: abundance fitness at least -0.2? input: K4I
label 1

API: above_or_equal(metric=abundance fitness, cutoff=-0.2) for item N51H
label 1

Reported abundance fitness reaches at least -0.2 for A23F ?
label 0

Decide: is the reported value of abundance fitness for Q46K equal to or greater than -0.2?
label 1

Is reported abundance fitness greater than or equal to -0.2 here: D8S
label 1

Does the reported abundance fitness for E16V fall at or above the -0.2 mark?
label 0

Could you tell me if the measured abundance fitness of D8T reaches -0.2 or more?
label 1

Reported abundance fitness at or above -0.2? E16T
label 0

hey, is abundance fitness for this one >= -0.2? L24V
label 1

Answer whether abundance fitness of G33V is greater than or equal to -0.2.
label 0

Evaluate S50G : abundance fitness at minimum -0.2?
label 1

Quick check, abundance fitness >= -0.2? N27K
label 0

hey, is abundance fitness for this one >= -0.2? Y52Q
label 0

Could you please find out whether S50Y has abundance fitness that meets -0.2 or exceeds it?
label 1

Identify whether the reported abundance fitness of the following variant is -0.2 or greater: T2K
label 0

Threshold query (abundance fitness >= -0.2) on T2L
label 0

Answer whether abundance fitness of S50I is greater than or equal to -0.2.
label 0

Textbook exercise: given the entry R1G , state whether its abundance fitness is greater than or equal to -0.2.
label 0

Decide: is the reported value of abundance fitness for G34T equal to or greater than -0.2?
label 1

Is abundance fitness at least -0.2? Consider I44W
label 0

// inclusive: abundance fitness at least -0.2? input: N51K
label 1

Does the variant S50T have recorded abundance fitness that is -0.2 or more?
label 0

Does the variant Y40H have recorded abundance fitness that is -0.2 or more?
label 1

Does the reported abundance fitness for L6P fall at or above the -0.2 mark?
label 0

# check: abundance fitness of Q45D is greater than or equal to -0.2
label 0

Quick check, abundance fitness >= -0.2? L6W
label 0

Would you say A23S shows abundance fitness at minimum -0.2?
label 1

Check this variant for abundance fitness at or above -0.2: A5G
label 0

Is it the case that G33E has abundance fitness reaching or exceeding -0.2?
label 0

Please tell me: is the variant V53H at or over -0.2 in terms of abundance fitness?
label 0

Quick check, abundance fitness >= -0.2? F19Q
label 0

Form field: abundance fitness at least -0.2? Entry: A11L
label 0

hey, is abundance fitness for this one >= -0.2? Y40G
label 0

Is the recorded value of abundance fitness equal to or greater than -0.2 for this variant? Y52P
label 0

# bool: abundance fitness of Y7G >= -0.2
label 0

Does abundance fitness meet or surpass -0.2 for K4C ?
label 1

Has T2V a recorded abundance fitness greater than or equal to -0.2?
label 1

Please tell me: is the variant E31N at or over -0.2 in terms of abundance fitness?
label 1

Determine whether this variant has abundance fitness no lower than -0.2: K37Q
label 0

Check if abundance fitness >= -0.2 (inclusive). Item: S14K
label 1

Is it the case that G38R has abundance fitness reaching or exceeding -0.2?
label 0

# bool: abundance fitness of K37I >= -0.2
label 0

Determine whether measured abundance fitness meets or exceeds -0.2 for P32N
label 1

Check if abundance fitness >= -0.2 (inclusive). Item: H26A
label 1
